Reference for the values: patent US20090325959A1

- measurement_notes: Compound plasma concentrations in unsensitized mice at 15 min post administration
- Assay type: in vivo
- condition: mouse, 15 μmol/kg; mean compound plasma concentration in mice at 15 minutes post oral administration; read-out: Mouse Oral PK
Recorded concentration at 15 min for the following compounds
Provide the reading as a plain figure in nM.

{"columns": ["smiles_input", "concentration at 15 min [nM]"],
 "data": [
  ["CCS(=O)(=O)Nc1cccc(CN2CCC[C@H](Nc3ccc4[nH]ncc4c3)C2)c1", 118],
  ["c1cc2cc(CN3CCC[C@@H](Nc4ccc5[nH]ncc5c4)C3)ccc2s1", 1860],
  ["Fc1ccc(CN2CCC[C@H](Nc3ccc4[nH]ncc4c3)C2)cc1", 1500],
  ["CS(=O)(=O)Nc1cccc(CN2CC[C@@H](Nc3cccc4cnccc34)C2)c1", 729]
]}

Ask | Which concentration at 15 min is reported for this compound? c1cc(N[C@@H]2CCN(Cc3ccc4occc4c3)C2)c2ccncc2c1
Reply | 656

Ask | Using the record for NC(=O)Cn1ccc2cc(CN3CCC[C@@H](Nc4ccc5[nH]ncc5c4)C3)ccc21 , report its concentration at 15 min.
Reply | 76

---

- study_target: ROCK1 (Homo sapiens)
- Construct: purchased Upstate/Chemicon 14-601
- measurement_notes: Rho kinase inhibition assay (IMAP fluorescence polarization), ROCK1
- Format: biochemical
- condition: Avg, 10 μM ATP
recorded_metric: pKi
For clarity, pKi is expressed as the negative log10 of concentration in mol/L.

{"columns": ["compound", "study_target", "result_number"],
 "data": [
  ["COc1c(CN2CCC[C@H](Nc3ccc4[nH]ncc4c3)C2)cccc1NS(C)(=O)=O [Compound 1.280]", "ROCK1 (Homo sapiens)", 6.13],
  ["CCS(=O)(=O)Nc1cccc(CN2CC[C@@H](Nc3cccc4cnccc34)C2)c1 [Compound 2.041]", "ROCK1 (Homo sapiens)", 7.51],
  ["C#Cc1ccc(CN2CCCC(Nc3ccc4[nH]ncc4c3)C2)cc1 (centres unmarked) [Compound 1.034]", "ROCK1 (Homo sapiens)", 7.44]
]}

Ask | What value of pKi has been recorded for this entry: Cc1ccc(CN2CCC[C@H](Nc3ccc4[nH]ncc4c3)C2)cc1OCC(=O)O [Compound 1.240]
Reply | 6.20

Ask | Endpoint output: pKi of COc1ccc(CN2CCC[C@H](Nc3cccc4cnccc34)C2)cc1 [Compound 2.053] . Value?
Reply | 6.02

Ask | Find the recorded pKi belonging to Cc1ccc(CN2CCC[C@H](Nc3ccc4[nH]ncc4c3)C2)cc1NS(C)(=O)=O [Compound 1.233] and report it.
Reply | 7.33

Ask | Consider the compound shown here: Clc1cccc(CN2CCC[C@@H](Nc3ccc4[nH]ncc4c3)C2)c1 [Compound 1.191] What is its recorded pKi?
Reply | 6.83

Ask | Can you look up the measured pKi of OCCOc1cccc(CN2CCC[C@H](Nc3ccc4[nH]ncc4c3)C2)c1 [Compound 1.090] for me?
Reply | 6.55

---

- measurement_notes: Compound plasma concentrations in unsensitized mice at 15 min post administration
- Format: in vivo
- condition: mouse, 15 μmol/kg; mean compound plasma concentration in mice at 15 minutes post oral administration; read-out: Mouse Oral PK
Could you mark each record True if its concentration at 15 min falls strictly under 200 nM, and False if it equals or exceeds it?

# count of solved cases: 3
{"columns": ["compound", "assigned_class"],
 "data": [
  ["CSc1ccc(CN2CCC[C@@H](Nc3ccc4[nH]ncc4c3)C2)cc1 [Compound 1.074]", "False"],
  ["CS(=O)(=O)Nc1cc(CN2CCC[C@@H](Nc3ccc4[nH]ncc4c3)C2)ccc1Cl [Compound 1.212]", "False"],
  ["c1cc(N[C@@H]2CCN(Cc3ccc4[nH]ccc4c3)C2)c2ccncc2c1 [Compound 2.065]", "False"]
]}

Ask | I'd appreciate it if you could check whether Cc1ccc(CN2CCC[C@@H](Nc3ccc4[nH]ncc4c3)C2)cc1 [Compound 1.133] has concentration at 15 min smaller than 200 nM.
Reply | False

Ask | Item Clc1ccc(CN2CCC[C@@H](Nc3ccc4[nH]ncc4c3)C2)cc1 [Compound 1.132] : concentration at 15 min beneath 200 nM, strictly?
Reply | False

---

- study_target: ROCK1 (Homo sapiens)
- Construct: purchased Upstate/Chemicon 14-601
- measurement_notes: Rho kinase inhibition assay (IMAP fluorescence polarization), ROCK1
- Assay type: biochemical
- condition: average Ki
Class definitions on Ki: lower band: < 30 nM; central band: ≥ 30 nM and < 80 nM; upper band: ≥ 80 nM

Ask | The entry to classify is Cc1ccc(CN2CCC[C@H](Nc3ccc4[nH]ncc4c3)C2)c(C)c1 ; which class holds it?
Reply | central band

Ask | Entry Cc1ccc(CN2CC[C@@H](Nc3cccc4cnccc34)C2)cc1 belongs to which category?
Reply | lower band

Ask | Tag the class for CCc1ccc(CN2CCC[C@@H](Nc3ccc4[nH]ncc4c3)C2)cc1
Reply | lower band

Ask | Bin? NC(=O)c1cccc(CN2CCC[C@H](Nc3ccc4[nH]ncc4c3)C2)c1
Reply | upper band

Ask | Which category fits this record: O=S(=O)(Nc1cccc(CN2CC[C@@H](Nc3cccc4cnccc34)C2)c1)N1CCCCC1
Reply | lower band

Ask | Category lookup for the molecule O=S(=O)(Nc1cccc(CN2CCC[C@H](Nc3ccc4[nH]ncc4c3)C2)c1)N1CCCCC1
Reply | upper band

Ask | Given c1cc(C2CC2)ccc1CN1CCC[C@@H](Nc2ccc3[nH]ncc3c2)C1 , name the class its Ki places it in.
Reply | central band

Ask | Class (by measured Ki) for COc1c(CN2CC[C@@H](Nc3cccc4cnccc34)C2)cccc1NS(C)(=O)=O
Reply | central band

Ask | Each molecule maps to one class by Ki. Which class for Cc1ccc(CN2CC[C@@H](Nc3cccc4cnccc34)C2)cc1OCC(=O)O ?
Reply | lower band

Ask | Any idea which band NC(=O)COc1cccc(CN2CCC[C@H](Nc3ccc4[nH]ncc4c3)C2)c1 is in?
Reply | upper band

Ask | Classify this molecule: C#Cc1ccc(CN2CCC[C@H](Nc3ccc4[nH]ncc4c3)C2)cc1
Reply | central band

Ask | Kindly state the category for this molecule: CSc1nccc(CN2CC[C@@H](Nc3cccc4cnccc34)C2)n1
Reply | upper band

Ask | Exam item: assign NS(=O)(=O)c1cccc(CN2CCC[C@@H](Nc3ccc4[nH]ncc4c3)C2)c1 to the correct category.
Reply | upper band

Ask | State the class of the molecule shown: CCS(=O)(=O)Nc1cc(CN2CCC[C@H](Nc3ccc4[nH]ncc4c3)C2)ccc1C
Reply | central band

Ask | Could you place Cc1ccc(CN2CCC[C@@H](Nc3ccc4[nH]ncc4c3)C2)cc1OCC(N)=O in its proper category? Many thanks.
Reply | central band

Ask | # bin label for Cc1ccc(S(=O)(=O)Nc2cc(CN3CCC[C@@H](Nc4ccc5[nH]ncc5c4)C3)ccc2C)cc1
Reply | central band

Ask | Which Ki band matches c1cc(CN2CCC[C@H](Nc3ccc4[nH]ncc4c3)C2)cc(C2CC2)c1 ?
Reply | upper band

Ask | Given Cc1c(CN2CCC[C@H](Nc3ccc4[nH]ncc4c3)C2)cccc1NS(=O)(=O)N(C)C , name the class its Ki places it in.
Reply | upper band

Ask | Bin this entry: CS(=O)(=O)Nc1cccc(CN2CC[C@@H](Nc3cccc4cnccc34)C2)c1
Reply | lower band

---

- study_target: ROCK1 (Homo sapiens, UniProt Q13464)
- Construct: purchased Upstate/Chemicon 14-601
- Sequence (Q13464 17-535 limits assumed): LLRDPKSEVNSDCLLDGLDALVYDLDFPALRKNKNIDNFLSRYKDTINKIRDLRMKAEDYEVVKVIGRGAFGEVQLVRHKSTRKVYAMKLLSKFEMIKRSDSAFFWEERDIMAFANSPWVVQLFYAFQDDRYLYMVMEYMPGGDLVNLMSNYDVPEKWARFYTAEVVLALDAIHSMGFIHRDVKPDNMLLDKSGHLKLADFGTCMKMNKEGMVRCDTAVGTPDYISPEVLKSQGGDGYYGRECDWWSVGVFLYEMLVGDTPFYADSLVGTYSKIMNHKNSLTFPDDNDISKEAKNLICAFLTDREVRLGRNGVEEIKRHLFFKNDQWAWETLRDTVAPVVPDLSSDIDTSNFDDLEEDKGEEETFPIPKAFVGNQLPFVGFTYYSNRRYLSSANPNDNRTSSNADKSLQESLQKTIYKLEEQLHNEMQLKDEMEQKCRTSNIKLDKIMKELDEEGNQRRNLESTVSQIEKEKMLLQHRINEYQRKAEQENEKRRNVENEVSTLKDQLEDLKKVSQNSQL
- measurement_notes: Rho kinase inhibition assay (IMAP fluorescence polarization), ROCK1;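 note: kinase reaction run 60 min at room temperature, then phosphorylated substrate captured on IMAP beads for 30 min, with fluorescence polarization read in mP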
- Assay type: biochemical
- condition: Avg, 10 μM ATP
pKi: −log10 of the molar value.
Decide by pKi: equal to or exceeding 7 means satisfied, less means not satisfied.

Some entries whose results are on file:
{"columns": ["molecule", "assigned_class"],
 "data": [
  ["CC(=O)NCCOc1cccc(CN2CCC[C@H](Nc3ccc4[nH]ncc4c3)C2)c1 [Compound 1.218]", "not satisfied"],
  ["OCCOc1cc(CN2CC[C@@H](Nc3cccc4cnccc34)C2)ccc1F [Compound 2.068]", "satisfied"],
  ["c1cc(N[C@@H]2CCN(Cc3cnccn3)C2)c2ccncc2c1 [Compound 2.086]", "not satisfied"]
]}

Ask | Please check the record Brc1ccc(CN2CCC[C@@H](Nc3ccc4[nH]ncc4c3)C2)cc1 [Compound 1.134] and state if its pKi is at or above 7.
Reply | satisfied

Ask | Given CS(=O)(=O)c1cccc(CN2CCC[C@@H](Nc3ccc4[nH]ncc4c3)C2)c1 [Compound 1.160] , state whether its pKi is at least 7.
Reply | not satisfied

Ask | Confirm if pKi reported for the molecule OCCn1cc(CN2CC[C@@H](Nc3cccc4cnccc34)C2)c2ccccc21 [Compound 2.072] is 7 or above.
Reply | satisfied

Ask | Hi team, for Fc1ccc(CN2CCC[C@@H](Nc3ccc4[nH]ncc4c3)C2)cc1 [Compound 1.146] , is the recorded pKi at or above 7?
Reply | satisfied

Ask | Is it the case that Cc1ccc(CN2CC[C@@H](Nc3cccc4cnccc34)C2)cc1OCC(=O)O [Compound 2.073] has pKi reaching or exceeding 7?
Reply | satisfied
